System: HPPD polypeptides
Assay: coupled HPPD activity assay: turnover and residual turnover in crude extracts
Format: biochemical, Pseudomonas fluorescens
Conditions: presence of 100 μM Cmpd. 1; high substrate concentration; changes in absorbance (OD) at 320 nm
Procedure: The activity of HPPD polypeptides was determined in absence or presence of HPPD inhibitors using the coupled HPPD activity assay (FIG. 1). […] Residual turnover were determined according to Example 3 by measuring total change in signal in the presence and absence of Cmpd. […]
Kindly return criterion met if reported Residual turnover is no lower than 0.08; return criterion not met if it is lower.

{"molecule": "47 (protein, mutant HPPD polypeptide) MADLYENPMGLMGFEFIEFASPTPGTLEPIFEIMGFTKVATHRSKNVHLYRQGEINLILNNEPNSIASYFAAEHGPSVCGMAFRVKDSQKAYNRALELGAQPIHIDTGPMELNLPAIKGIGGAPLYLIDRFGEGSSIYDIDFVYLEGVERNPVGAGLKVIDHLTHNVYRGRMVYWANFYEKLFNFREARYFDIKGEYTGLTSKAMSAPDGMIRIPLNEESSKGAGQIEEFLMQFNGEGIQHVAFLTDDLVKTWDALKKIGMRFMTAPADNYYEMLEGRLPDHGEPVDQLQARGILLDGSSVEGDKRLLLQIFSETLMGPVFFEFIQRKGDDGFGPHSFKVLFEQMERDQVRRGVLTAD", "class": "criterion met"}
{"molecule": "59 (protein, mutant HPPD polypeptide) MADLYENPMGLMGFEFIEFASPTPGTLEPIFEIMGFTKVATHRSKNVHLYRQGEINLILNNEPNSIASYFAAEHGPSVCGMAFRVKDSQKAYNRALELGAQPIHIDTGPMELNLPAIKGIGGAPLYLIDRFGEGSSIYDIDFVYLEGVERNPVGAGLKVIDHLTHNVYRGRMVYWANFYEKLFNFREARYFDIKGEYTGLTSKAMSAPDGMIRIPLNEESSKGAGQIEEFLMQFNGEGIQHVAFLTDDLVKTWDALKKIGMRFMTAPADSYYEMLEGRLPDHGEPVDQLQARGILLDGSSVEGDKRLLLQIFSETLMGPVFFEFIQRKGDDGFGPDSFKVLFEQKERDQVRRGVLTAD", "class": "criterion not met"}
{"molecule": "20 (protein, mutant HPPD polypeptide) MADLYENPMGLMGFEFIEFASPTPGTLEPIFEIMGFTKVATHRSKNVHLYRQGEINLILNNEPNSIASYFAAEHGPSVCGMAFRVKDSQKAYNRALELGAQPIHIDTGPMELNLPAIKGIGGAPLYLIDRFGEGSSIYDIDFVYLEGVERNPVGAGLKVIDHLTHNVYRGRMVYWANFYEKLFNFREARYFDIKGEYTGLTSKAMSAPDGMIRIPLNEESSKGAGQIEEFLMQFNGEGIQHVAFLTDDLVKTWDALKKIGMRFMTAPSDEYYEMLEGRLPDHGEPVDQLQARGILLDGSSVEGDKRLLLQIFSETLMGPVFFEFIQRKGDDGFGPDSFKVLFESVERDQVRRGVLTAD", "class": "criterion met"}
{"molecule": "39 (protein, mutant HPPD polypeptide) MADLYENPMGLMGFEFIEFASPTPGTLEPIFEIMGFTKVATHRSKNVHLYRQGEINLILNNEPNSIASYFAAEHGPSVCGMAFRVKDSQKAYNRALELGAQPIHIDTGPMELNLPAIKGIGGAPLYLIDRFGEGSSIYDIDFVYLEGVERNPVGAGLKVIDHLTHNVYRGRMVYWANFYEKLFNFREARYFDIKGEYTGLTSKAMSAPDGMIRIPLNEESSKGAGQIEEFLMQFNGEGIQHVAFLTDDLVKTWDALKKIGMRFMTAPGDEYYEMLEGRLPDHGEPVDQLQARGILLDGSSVEGDKRLLLQIFSETLMGPVFFEFIQRKGDDGFGPHSFKVLFESVERDQVRRGVLTAD", "class": "criterion met"}

Okay, next one:
Exercise: Identify whether the reported Residual turnover of the following molecule is 0.08 or greater: 60 (protein, mutant HPPD polypeptide) MADLYENPMGLMGFEFIEFASPTPGTLEPIFEIMGFTKVATHRSKNVHLYRQGEINLILNNEPNSIASYFAAEHGPSVCGMAFRVKDSQKAYNRALELGAQPIHIDTGPMELNLPAIKGIGGAPLYLIDRFGEGSSIYDIDFVYLEGVERNPVGAGLKVIDHLTHNVYRGRIDYWANFYEKLFNFREARYFDIKGEYTGLTSKAMSAPDGMIRIPLNEESSKGAGQIEEFLMQFNGEGIQHVAFLTDDLVKTWDALKKIGMRFMTAPADSYYEMLEGRLPDHGEPVDQLQARGILLDGSSVEGDKRLLLQIFSETLMGPVFFEFIQRKGDDGFGPDSFKVLFESKERDQVRRGVLTAD
Solution: criterion not met
